Recorded values, source patent EP4039268A1.

Consider the following binders; for each one, report its Mean normalized OD.
Molecular target: T1, human recombinant soluble ACE2 (human, UniProt Q9BYF1 18-740)
T1 construct: also called hrsACE2
T1 sequence (Q9BYF1 18-740 limits assumed): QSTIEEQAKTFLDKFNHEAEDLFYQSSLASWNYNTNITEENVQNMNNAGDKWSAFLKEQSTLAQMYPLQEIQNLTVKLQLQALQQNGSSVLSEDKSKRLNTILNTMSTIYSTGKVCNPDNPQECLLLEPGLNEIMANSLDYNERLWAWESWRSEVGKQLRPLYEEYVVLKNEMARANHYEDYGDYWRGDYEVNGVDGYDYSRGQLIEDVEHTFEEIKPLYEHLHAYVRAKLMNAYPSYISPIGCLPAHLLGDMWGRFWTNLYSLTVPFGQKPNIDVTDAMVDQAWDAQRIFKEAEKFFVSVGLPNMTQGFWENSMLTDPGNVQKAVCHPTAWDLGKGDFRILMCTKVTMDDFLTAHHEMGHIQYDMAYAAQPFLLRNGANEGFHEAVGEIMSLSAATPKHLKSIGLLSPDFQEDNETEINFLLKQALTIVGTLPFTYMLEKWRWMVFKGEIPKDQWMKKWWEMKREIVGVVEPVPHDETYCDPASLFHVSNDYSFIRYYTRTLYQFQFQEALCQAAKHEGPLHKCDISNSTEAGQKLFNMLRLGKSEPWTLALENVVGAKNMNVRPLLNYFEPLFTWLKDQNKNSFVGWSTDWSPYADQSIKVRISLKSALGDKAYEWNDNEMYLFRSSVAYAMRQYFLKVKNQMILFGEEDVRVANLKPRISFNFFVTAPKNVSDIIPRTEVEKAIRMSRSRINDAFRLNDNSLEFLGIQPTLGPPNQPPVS
Assay: ELISA screen

Report Mean normalized OD for Mrc1_7 CRD-mouse IgG2a-Fc fusion protein (Fc fusion) YGKSSYSLMKLKLPWHEAETYCKDHTSLLASILDPYSNAFAWMKMHPFNVPIWIALNSNLTNNEYTWTDRWRVRYTNWGADEPKLKSACVYMDVDGYWRTSYCNESFYFLCKGGGSGGGSGGGS please.
-0.008 OD

Then what about the binder Clec1b CRD-mouse IgG2a-Fc fusion protein (Fc fusion) HGDSCYGFFRRNLTWEESKQYCTEQNATLVKTASQSTLDYIAERITSVRWIGLSRQNSKKDWMWEDSSVLRKNGINLSGNTEENMNCAYLHNGKIHPASCKERHYLICEGGGSGGGSGGGS ?
0.04 OD

Then what about the binder Ly75_3 CRD-mouse IgG2a-Fc fusion protein (Fc fusion) KDAESDKLCPPDEGWKRHGETCYKIYEKEAPFGTNCNLTITSRFEQEFLNYMMKNYDKSLRKYFWTGLRDPDSRGEYSWAVAQGVKQAVTFSNWNFLEPASPGGCVAMSTGKTLGKWEVKNCRSFRALSICKKGGGSGGGSGGGS ?
-0.003 OD

Then what about the binder Atrnl1 CRD-mouse IgG2a-Fc fusion protein (Fc fusion) VGDACLRINSSRESYDNAKLYCYNLSGNLASLTTSKEVEFVLDEIQKFTQQKVSPWVGLRKINISYWGWEDMSPFTNTSLQWLPGEPNDSGFCAYLERAAVAGLKANPCTSMADGLVCEGGGSGGGSGGGS ?
-0.003 OD
